# Test system: MV-4-11
# test.description: Proliferation assay (spheroid assay) MV-4-11
# Type: cell-based, human
# setup.conditions: MV-4-11, 8 d, individual measurements (not averaged); read-out: (2) Spheroid assay MV-4-11 (IC50 (μM))
outcome.measure: IC50 (µM)
Provide only the numeric value, understood in µM.

-- ask Please give measured IC50 of the following entry: FC(F)(F)Cc1cc2c(N3CC[C@H]4[C@H](CCN4Cc4ccc[nH]4)C3)ncnc2s1 (single isomer, unassigned)
-- reply 2.3

====

Please provide measured IC50 for the entries that follow.
# target.desc: Menin/MLL (terbium chelate-labeled menin, FITC-MBM1 peptide) (Homo sapiens, UniProt O00255, T541A)
# Construct: Menin (a.a. 1-610-6×his tag) was labeled with terbium cryptate as follows
# test.description: Menin/MLL homogenous time-resolved fluorescence (HTRF) assay
# Assay type: binding
# setup.conditions: averaged values over all measurements; read-out: Menin HTRF assay (IC50)
Lab note: write values as number then unit, every time.

-- ask Please give measured IC50 of the following entry: COc1ccncc1CN1CC[C@@H]2CN(c3ncnc4sc(CC(F)(F)F)cc34)C[C@@H]2C1 (single isomer, unassigned) [Compound 61]
-- reply 0.146 µM

-- ask Please give measured IC50 of the following entry: FC(F)(F)Cc1cc2c(N3C[C@H]4CN(Cc5cccnc5)CC[C@H]4C3)ncnc2s1 (single isomer, unassigned) [Compound 72]
-- reply 0.991 µM

-- ask Please give measured IC50 of the following entry: FC(F)(F)Cc1cc2c(N3C[C@H]4CCN(CC5CCOCC5)C[C@H]4C3)ncnc2s1 (single isomer, unassigned) [Compound 70]
-- reply 0.018 µM

====

# target.desc: Menin/MLL (terbium chelate-labeled menin, FITC-MBM1 peptide) (Homo sapiens, UniProt O00255, T541A)
# Construct: Menin (a.a. 1-610-6×his tag) was labeled with terbium cryptate as follows
# test.description: Menin/MLL homogenous time-resolved fluorescence (HTRF) assay
# Assay type: binding
# setup.conditions: averaged values over all measurements; read-out: Menin HTRF assay (IC50)
Please use yes for IC50 under 100 nM and no for everything else, ties included.

-- ask Bench note: check whether FC(F)(F)Cc1cc2c(N3C[C@@H]4CN(Cc5ccccc5)[C@@H]4C3)ncnc2s1 shows IC50 below 100 nM
-- reply no

-- ask Bench note: check whether CC(CN1CC[C@@H]2CN(c3ncnc4sc(CC(F)(F)F)cc34)C[C@@H]2C1)c1ccccc1 (single isomer, unassigned) shows IC50 below 100 nM
-- reply yes

-- ask Bench note: check whether OCCn1cccc1CN1CCC2CN(c3ncnc4sc(CC(F)(F)F)cc34)CCC21 (stereo not drawn) shows IC50 below 100 nM
-- reply no

-- ask Bench note: check whether FC(F)(F)Cc1cc2c(N3C[C@H]4CCN(Cc5ccnnc5)C[C@H]4C3)ncnc2s1 (single isomer, unassigned) shows IC50 below 100 nM
-- reply yes

-- ask Bench note: check whether Cc1ncccc1CN1CC[C@@H]2CN(c3ncnc4sc(CC(F)(F)F)cc34)C[C@@H]2C1 (single isomer, unassigned) shows IC50 below 100 nM
-- reply yes

====

# target.desc: Menin/MLL (terbium chelate-labeled menin, FITC-MBM1 peptide) (Homo sapiens, UniProt O00255, T541A)
# Construct: Menin (a.a. 1-610-6×his tag) was labeled with terbium cryptate as follows
# Sequence (O00255 with tags, fused parts or gaps T541A): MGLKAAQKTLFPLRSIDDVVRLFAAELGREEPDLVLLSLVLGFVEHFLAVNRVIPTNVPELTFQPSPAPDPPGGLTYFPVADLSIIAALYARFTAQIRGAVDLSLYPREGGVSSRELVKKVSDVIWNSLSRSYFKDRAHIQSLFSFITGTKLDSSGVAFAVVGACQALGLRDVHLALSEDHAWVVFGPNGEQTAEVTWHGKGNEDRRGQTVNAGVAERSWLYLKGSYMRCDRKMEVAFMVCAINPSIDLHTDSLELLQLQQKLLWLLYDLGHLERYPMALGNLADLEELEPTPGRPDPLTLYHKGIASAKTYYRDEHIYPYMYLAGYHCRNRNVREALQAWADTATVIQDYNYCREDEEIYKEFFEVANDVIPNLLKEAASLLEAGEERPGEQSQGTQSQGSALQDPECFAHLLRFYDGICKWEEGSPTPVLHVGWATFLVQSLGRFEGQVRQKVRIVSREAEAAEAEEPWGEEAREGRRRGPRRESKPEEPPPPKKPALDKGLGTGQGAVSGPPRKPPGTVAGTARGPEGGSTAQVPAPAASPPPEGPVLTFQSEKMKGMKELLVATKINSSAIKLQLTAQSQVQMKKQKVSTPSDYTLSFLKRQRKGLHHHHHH
# test.description: Menin/MLL homogenous time-resolved fluorescence (HTRF) assay
# Assay type: binding
# setup.conditions: averaged values over all measurements; read-out: Menin HTRF assay (IC50)
Entries get a class label from measured IC50. See ranges: lower = under 60 nM, middle = from 60 nM up to 300 nM, upper = 300 nM and over

-- ask Quick check: band for FC(F)(F)Cc1cc2c(N3C[C@H]4CCN(Cc5cnoc5)C[C@H]4C3)ncnc2s1 (single isomer, unassigned)
-- reply middle

-- ask Quick check: band for CNc1ccc(CN2CC[C@@H]3CN(c4ncnc5sc(CC(F)(F)F)cc45)C[C@@H]3C2)cn1 (single isomer, unassigned)
-- reply lower

-- ask Quick check: band for OCCn1cc(CN2CC[C@@H]3CN(c4ncnc5sc(CC(F)(F)F)cc45)C[C@@H]3C2)cn1 (single isomer, unassigned)
-- reply lower

-- ask Quick check: band for Cn1cc(CN2CC[C@H]3CN(c4ncnc5sc(CC(F)(F)F)cc45)CC[C@H]32)cn1 (single isomer, unassigned)
-- reply middle

-- ask Quick check: band for FC(F)(F)Cc1cc2c(N3C[C@H]4CCN(CCc5ccccc5)C[C@H]4C3)ncnc2s1 (single isomer, unassigned)
-- reply upper

-- ask Quick check: band for FC(F)(F)Cc1cc2c(N3C[C@H]4CCN(Cc5ccnc(Cl)c5)C[C@H]4C3)ncnc2s1 (single isomer, unassigned)
-- reply lower

-- ask Quick check: band for CC(C)[C@@H](c1cnn(C)c1)N1CC[C@@H]2CN(c3ncnc4sc(CC(F)(F)F)cc34)C[C@@H]2C1 (single isomer, unassigned) [Compound 77B]
-- reply upper

-- ask Quick check: band for COc1ccc(CN2CC[C@@H]3CN(c4ncnc5sc(CC(F)(F)F)cc45)C[C@@H]3C2)cn1 (single isomer, unassigned)
-- reply lower

-- ask Quick check: band for CCCN1CC[C@@H]2CN(c3ncnc4sc(CC(F)(F)F)cc34)C[C@@H]2C1 (single isomer, unassigned)
-- reply middle

-- ask Quick check: band for COCCn1cc(CN2CC[C@@H]3CN(c4ncnc5sc(CC(F)(F)F)cc45)C[C@@H]3C2)cn1 (single isomer, unassigned)
-- reply middle

-- ask Quick check: band for FC(F)(F)Cc1cc2c(N3C[C@H]4CCN(Cc5ccncn5)C[C@H]4C3)ncnc2s1 (single isomer, unassigned)
-- reply middle

-- ask Quick check: band for CC(C)(C)OC(=O)N1CCC(O)(CN2CC[C@@H]3CN(c4ncnc5sc(CC(F)(F)F)cc45)C[C@@H]3C2)CC1 (single isomer, unassigned)
-- reply upper

====

Please provide measured IC50 for the entries that follow.
# target.desc: Menin/MLL (terbium chelate-labeled menin, FITC-MBM1 peptide) (Homo sapiens, UniProt O00255, T541A)
# Construct: Menin (a.a. 1-610-6×his tag) was labeled with terbium cryptate as follows
# test.description: Menin/MLL homogenous time-resolved fluorescence (HTRF) assay
# Format: binding
# setup.conditions: averaged values over all measurements; read-out: Menin HTRF assay (IC50)
Provide only the numeric value, understood in µM.

-- ask Please give measured IC50 of the following entry: Cc1ncc(CN2CC[C@@H]3CN(c4ncnc5sc(CC(F)(F)F)cc45)C[C@@H]3C2)cn1 (single isomer, unassigned) [Compound 90]
-- reply 0.317

-- ask Please give measured IC50 of the following entry: CC(C)(C)OC(=O)N1CCC(CN2CC[C@@H]3CN(c4ncnc5sc(CC(F)(F)F)cc45)C[C@@H]3C2)CC1 (single isomer, unassigned) [Compound 20]
-- reply 0.031

-- ask Please give measured IC50 of the following entry: O=C(c1ccccc1)N1CCC(CN2CC[C@@H]3CN(c4ncnc5sc(CC(F)(F)F)cc45)C[C@@H]3C2)CC1 (single isomer, unassigned) [Compound 94]
-- reply 0.018

====

# target.desc: Menin/MLL (terbium chelate-labeled menin, FITC-MBM1 peptide) (Homo sapiens, UniProt O00255, T541A)
# Construct: Menin (a.a. 1-610-6×his tag) was labeled with terbium cryptate as follows
# test.description: Menin/MLL homogenous time-resolved fluorescence (HTRF) assay
# Assay type: binding
# setup.conditions: averaged values over all measurements; read-out: Menin HTRF assay (IC50)
# Description: 3) Menin/MLL Homogenous Time-Resolved Fluorescence (HTRF) Assay […] Compound potencies were determined by first calculating % inhibition at each compound concentration according to equation 1: % inhibition=((HC−LC)−(HTRF^compound−LC))/(HC−LC))*100 (Eqn 1) […]
Please use fulfilled for IC50 under 1000 nM and not fulfilled for everything else, ties included.

-- ask Bench note: check whether COc1ncc(CN2CC[C@@H]3CN(c4ncnc5sc(CC(F)(F)F)cc45)C[C@@H]3C2)cn1 (single isomer, unassigned) shows IC50 below 1000 nM
-- reply fulfilled

-- ask Bench note: check whether FC(F)(F)Cc1cc2c(N3CCC4C(CCN4Cc4ccccc4)C3)ncnc2s1 (stereo not drawn) shows IC50 below 1000 nM
-- reply fulfilled

-- ask Bench note: check whether O=C(c1cccnc1)N1CCC(CN2CC[C@@H]3CN(c4ncnc5sc(CC(F)(F)F)cc45)C[C@@H]3C2)CC1 (single isomer, unassigned) shows IC50 below 1000 nM
-- reply fulfilled

-- ask Bench note: check whether Cn1cc(CN2C(=O)C[C@H]3CCN(c4ncnc5sc(CC(F)(F)F)cc45)C[C@H]32)cn1 (single isomer, unassigned) [Compound 35A] shows IC50 below 1000 nM
-- reply not fulfilled

-- ask Bench note: check whether FC(F)(F)Cc1cc2c(N3C[C@H]4CCN(Cc5ccc(Cl)nc5)C[C@H]4C3)ncnc2s1 (single isomer, unassigned) shows IC50 below 1000 nM
-- reply fulfilled

The measured values listed here are drawn from patent US10611778B2.
